System: amphetamine
Experiment: Amphetamine antagonism in rats
Assay type: in vivo
Conditions: Rattus norvegicus, po, rats, p.o., amphetamine 10 mg/kg base i.v.; read-out: Amphetamine antag. ED50 p.o.
Criterion: ED50 strictly less than 6 mg/kg. Met: satisfied. Not met: not satisfied.

CC(C)N1CCN(C2CC(c3ccc(F)cc3)c3ccc(F)cc32)CC1 (centres unmarked)
not satisfied
OCC(CO)N1CCN(C2CC(c3ccc(F)cc3)c3ccc(C(F)(F)F)cc32)CC1 (centres unmarked)
satisfied
O[C@H]1CC[C@H](CN2CCN(C3CC(c4ccc(F)cc4)c4ccc(F)cc43)CC2)CC1 (relative stereo)
not satisfied
OCCN1CCN([C@@H]2C[C@@H](c3ccc(F)cc3)c3cc(F)ccc32)CC1 (relative stereo)
not satisfied
O=C1NCCN1CCN1CCN(C2CC(c3ccc(F)cc3)c3ccc(F)cc32)CC1 (centres unmarked)
not satisfied
CC(C)c1ccc2c(c1)C(N1CCN(CCO)CC1)CC2c1ccc(F)cc1 (centres unmarked)
not satisfied
Cc1ccc2c(c1)C(N1CCN(C(C)C)CC1)CC2c1ccc(F)cc1 (centres unmarked)
satisfied
OCCCN1CCN([C@@H]2C[C@@H](c3ccc(F)cc3)c3ccc(Cl)cc32)CC1 (relative stereo)
satisfied

* * *

Tested on: amphetamine
Experiment: Amphetamine antagonism in rats
Assay type: in vivo
Details: Rattus norvegicus, po, rats, p.o., amphetamine 10 mg/kg base i.v.; read-out: Amphetamine antag. ED50 p.o.
readout_label: ED50 (mg/kg)

CN1CCN(C2CC(c3ccc(F)cc3)c3ccc(C(F)(F)F)cc32)CC1 (centres unmarked)
0.2
COc1ccc2c(c1)C(N1CCN(CCO)CC1)CC2c1ccc(F)cc1 (centres unmarked)
16.6
O=C1OCCN1CCN1CCN(C2CC(c3ccc(F)cc3)c3ccc(F)cc32)CC1 (centres unmarked)
51
CC(C)N1CCN(C2CC(c3ccc(F)cc3)c3ccc(Cl)cc32)CC1 (centres unmarked)
1.8
OCCN1CCN(C2CC(c3ccc(F)cc3)c3ccc(C(F)(F)F)cc32)CC1 (centres unmarked)
0.16
CSc1ccc2c(c1)[C@H](N1CCN(CCO)CC1)C[C@H]2c1ccc(F)cc1 (relative stereo)
9.1
CSc1ccc2c(c1)C(N1CCN(C(C)C)CC1)CC2c1ccc(F)cc1 (centres unmarked)
7.8
OCCN1CCN(CCCN2c3ccccc3Sc3ccc(C(F)(F)F)cc32)CC1 [fluphenazine, reference compound]
0.7

* * *

Listing of entries alongside the reported LD50.
Assay: in vivo
Conditions: iv
readout_label: LD50 (mg/kg)

CN1CCN([C@@H]2C[C@@H](c3ccc(F)cc3)c3ccc(Cl)cc32)CC1 (relative stereo)
68
OCCN1CCN(CCCN2c3ccccc3Sc3ccc(C(F)(F)F)cc32)CC1 [fluphenazine, reference compound]
98
CC(O)CN1CCN(C2CC(c3ccc(F)cc3)c3ccc(F)cc32)CC1 (centres unmarked)
130
CN1CCN([C@@H]2C[C@@H](c3ccc(F)cc3)c3ccc(F)cc32)CC1 (relative stereo)
80
Fc1ccc(C2CC(N3CCN(CCc4ccccc4)CC3)c3cc(F)ccc32)cc1 (centres unmarked)
40
CN1CCN([C@@H]2C[C@H](c3ccc(F)cc3)c3ccc(Cl)cc32)CC1 (relative stereo)
65
OCCCCN1CCN(C2CC(c3ccc(F)cc3)c3ccc(C(F)(F)F)cc32)CC1 (centres unmarked)
56
OCCN1CCN(C2CC(c3ccc(F)cc3)c3ccc(C(F)(F)F)cc32)CC1 (centres unmarked)
56

* * *

Experiment: in vivo
Details: iv
Listing of entries alongside the reported LD50.
readout_label: LD50 (mg/kg)

CC(C)c1ccc2c(c1)C(N1CCN(CCO)CC1)CC2c1ccc(F)cc1 (stereo not shown)
57
CN1CCN(C2CC(c3ccc(F)cc3)c3ccc(F)cc32)CC1 (single isomer, unassigned; (+))
113
Cc1ccc2c(c1)[C@H](N1CCN(CCO)CC1)C[C@H]2c1ccc(F)cc1 (relative stereo)
80
Cc1ccc2c(c1)[C@H](N1CCN(C)CC1)C[C@H]2c1ccc(F)cc1 (relative stereo)
80

* * *

Test system: amphetamine
Test: Amphetamine antagonism in rats
Format: in vivo
Conditions: Rattus norvegicus, po, rats, p.o., amphetamine 10 mg/kg base i.v.; read-out: Amphetamine antag. ED50 p.o.
readout_label: ED50

OCC(O)CN1CCN(C2CC(c3ccc(F)cc3)c3ccc(F)cc32)CC1 (single isomer, unassigned) [Lu 17-066]
18 mg/kg
CN1CCN([C@@H]2C[C@@H](c3ccc(F)cc3)c3ccc(Cl)cc32)CC1 (relative stereo) [Lu 17-121]
10 mg/kg
Cc1ccc2c(c1)C(N1CCN(CC3CC3)CC1)CC2c1ccc(F)cc1 (stereo not shown) [Lu 17-130]
> 40 mg/kg
OCC(CO)N1CCN(C2CC(c3ccc(F)cc3)c3ccc(F)cc32)CC1 (stereo not shown) [Lu 18-134]
11.7 mg/kg

* * *

Test system: methylphenidate
Assay: Methylphenidate antagonism in mice
Format: in vivo
Details: Mus musculus, ip, 2 h, read-out: MePh antag. ED50 2 hr i.p., mice, test substance i.p., 2 hr before methylphenidate 60 mg/kg s.c.
readout_label: log10 of ED50 (log10 of the value in mg/kg)

OCC(O)CN1CCN(C2CC(c3ccc(F)cc3)c3ccc(C(F)(F)F)cc32)CC1 (centres unmarked) [Lu 18-063]
-0.40
Fc1ccc(C2CC(N3CCN(CC=Cc4ccccc4)CC3)c3cc(F)ccc32)cc1 (centres unmarked) [Lu 18-162]
1.46
OCCN1CCN(C2CC(c3ccc(F)cc3)c3ccc(C(F)(F)F)cc32)CC1 (centres unmarked) [Lu 18-012]
-1.52
OCCCN1CCN([C@@H]2C[C@@H](c3ccc(F)cc3)c3ccc(Cl)cc32)CC1 (relative stereo) [Lu 17-127]
-0.40
Cc1ccc2c(c1)C(N1CCN(C(C)C)CC1)CC2c1ccc(F)cc1 (centres unmarked) [Lu 17-069]
-0.10
OCC(CO)N1CCN(C2CC(c3ccc(F)cc3)c3ccc(F)cc32)CC1 (centres unmarked) [Lu 18-134]
0.28

* * *

Assay: in vivo
Settings: iv
Listing of entries alongside the reported LD50.
readout_label: LD50 (mg/kg)

CN1CCN([C@@H]2C[C@@H](c3ccccc3)c3ccc(Cl)cc32)CC1 (relative stereo)
80
OCCCN1CCN([C@@H]2C[C@@H](c3ccc(F)cc3)c3ccc(Cl)cc32)CC1 (relative stereo)
80
COc1ccc2c(c1)C(N1CCN(CCO)CC1)CC2c1ccc(F)cc1 (centres unmarked)
113
CC(C)N1CCN(C2CC(c3ccc(F)cc3)c3ccc(C(F)(F)F)cc32)CC1 (centres unmarked)
57
OCCN1CCN([C@@H]2C[C@@H](c3ccc(F)cc3)c3ccc(Cl)cc32)CC1 (relative stereo)
94
CCC(=O)O[C@](Cc1ccccc1)(c1ccccc1)[C@H](C)CN(C)C [dextropropoxyphene, reference compound]
34
OCCCN1CCN(C2CC(c3ccc(F)cc3)c3ccc(C(F)(F)F)cc32)CC1 (centres unmarked)
57

* * *

Test system: methylphenidate
Assay: Methylphenidate antagonism in mice
Format: in vivo
Settings: Mus musculus, ip, 2 h, read-out: MePh antag. ED50 2 hr i.p., mice, test substance i.p., 2 hr before methylphenidate 60 mg/kg s.c.
Listing of entries alongside the reported ED50.
readout_label: ED50 (mg/kg)

CSc1ccc2c(c1)C(N1CCN(C(C)C)CC1)CC2c1ccc(F)cc1 (stereo not shown)
2.3
OCCN1CCN([C@@H]2C[C@@H](c3ccc(F)cc3)c3ccc(F)cc32)CC1 (relative stereo)
3
Cc1ccc2c(c1)[C@H](N1CCN(C)CC1)C[C@H]2c1ccc(F)cc1 (relative stereo)
0.6
O=C1OCCN1CCN1CCN(C2CC(c3ccc(F)cc3)c3ccc(F)cc32)CC1 (stereo not shown)
9.1

* * *

Listing of entries alongside the reported ED50.
Test system: amphetamine
Test: Amphetamine antagonism in rats
Assay type: in vivo
Conditions: Rattus norvegicus, po, rats, p.o., amphetamine 10 mg/kg base i.v.; read-out: Amphetamine antag. ED50 p.o.
readout_label: ED50 (mg/kg)

Cc1ccc2c(c1)[C@H](N1CCN(CCO)CC1)C[C@H]2c1ccc(F)cc1 (relative stereo) [Lu 17-050]
9.4
CC(O)CN1CCN(C2CC(c3ccc(F)cc3)c3ccc(F)cc32)CC1 (stereo not drawn) [Lu 17-143]
5.4

* * *

Assay: in vivo
Design: species or system rats
Conditions: catalepsy ED50 / amphetamine antagonism ED50
So basically, the class depends on measured Ratio catalep./Amphet., and the ranges are class A (below 0.8), class B (0.8 to below 2), class C (2 or more)

CC(O)CN1CCN(C2CC(c3ccc(F)cc3)c3ccc(F)cc32)CC1 (centres unmarked) [Lu 17-143]
class C
O=C(CCCN1CCC(O)(c2ccc(Cl)cc2)CC1)c1ccc(F)cc1 [haloperidol, reference compound]
class B
OCC(O)CN1CCN(C2CC(c3ccc(F)cc3)c3ccc(C(F)(F)F)cc32)CC1 (centres unmarked) [Lu 18-063]
class C
COc1ccc2c(c1)C(N1CCN(CCO)CC1)CC2c1ccc(F)cc1 (centres unmarked) [Lu 18-006]
class A
CSc1ccc2c(c1)C(N1CCN(C(C)C)CC1)CC2c1ccc(F)cc1 (centres unmarked) [Lu 17-111]
class B
CSc1ccc2c(c1)C(N1CCN(CCCO)CC1)CC2c1ccc(F)cc1 (centres unmarked) [Lu 17-068]
class A
OCCCN1CCN([C@@H]2C[C@@H](c3ccc(F)cc3)c3ccc(Cl)cc32)CC1 (relative stereo) [Lu 17-127]
class B
CSc1ccc2c(c1)[C@H](N1CCN(C)CC1)C[C@H]2c1ccc(F)cc1 (relative stereo) [Lu 17-055]
class A
CN(C)CCCN1c2ccccc2Sc2ccc(Cl)cc21 [chlorpromazine, reference compound]
class B
OCCCN1CCN([C@@H]2C[C@@H](c3ccc(F)cc3)c3ccc(F)cc32)CC1 (relative stereo) [Lu 14-036]
class B
OCC(CO)N1CCN(C2CC(c3ccc(F)cc3)c3ccc(F)cc32)CC1 (centres unmarked) [Lu 18-134]
class C
CN1CCN([C@@H]2C[C@@H](c3ccc(F)cc3)c3ccc(F)cc32)CC1 (relative stereo) [Lu 13-092]
class C
CC(C)N1CCN(C2CC(c3ccc(F)cc3)c3ccc(Cl)cc32)CC1 (centres unmarked) [Lu 17-129]
class A

All figures here come from patent US4443448A.
